Just for reference, patent US20260159474A1 is where these values come from.

Property: microsomal CLint at 0.5 μM; scope: individual molecules
experiment: Intrinsic clearance in rat liver microsomes; assay type: in vitro ADME; settings: pH 7.4, read-out: Cl (μL/min/mg protein) - Rat Microsomes
Answer format: numeric, µL/min/mg implied, no suffix.

Value lookup for microsomal CLint at 0.5 μM; key = COC(=O)c1ccc2c(c1)CC(N)C2 (centres unmarked) [CMP-405, 2-aminoindane-5-methylcarboxylate]
143

Value lookup for microsomal CLint at 0.5 μM; key = COc1cc2c(cc1C)CC(N)C2 (centres unmarked)
200

Value lookup for microsomal CLint at 0.5 μM; key = COc1ccc2c(c1)CC(N)C2 (centres unmarked)
156

Value lookup for microsomal CLint at 0.5 μM; key = COC(=O)c1cc2c(cc1OC)CC(N)C2 (centres unmarked)
121

Value lookup for microsomal CLint at 0.5 μM; key = COC(=O)COc1ccc2c(c1)CC(N)C2 (centres unmarked)
2050

---

molecular target: human DAT (Homo sapiens); construct: expressed in transfected cells; host or cells: CHO (hDAT-CHO); assay: DAT uptake SPA in hDAT-CHO cells; type: cell-based; conditions: [3H]-dopamine uptake, hDAT-CHO cells; read-out: DAT Uptake SPA (pIC50) (converted)
Property: IC50; scope: individual compounds
Answer format: numeric, µM implied, no suffix.

Study these solved cases before continuing.
>>> test_value("COC(=O)c1ccc2c(c1)CC(N)C2 (stereo not drawn) [CMP-405, 2-aminoindane-5-methylcarboxylate]")
20
>>> test_value("COC(=O)Cc1cc2c(cc1OC)CC(N)C2 (stereo not drawn)")
100
>>> test_value("COC(=O)c1cc2c(cc1OC)CC(N)C2 (stereo not drawn)")
100
>>> test_value("COC(=O)COc1ccc2c(c1)CC(N)C2 (stereo not drawn)")
100

Value lookup for IC50; key = COC(=O)CCc1ccc2c(c1)CC(N)C2 (stereo not drawn)
63.1

---

biological target: human DAT (Homo sapiens, UniProt Q01959); construct: expressed in transfected cells; host or cells: CHO (hDAT-CHO); test: DAT uptake SPA in hDAT-CHO cells; format: cell-based
Sequence (Q01959 whole entry): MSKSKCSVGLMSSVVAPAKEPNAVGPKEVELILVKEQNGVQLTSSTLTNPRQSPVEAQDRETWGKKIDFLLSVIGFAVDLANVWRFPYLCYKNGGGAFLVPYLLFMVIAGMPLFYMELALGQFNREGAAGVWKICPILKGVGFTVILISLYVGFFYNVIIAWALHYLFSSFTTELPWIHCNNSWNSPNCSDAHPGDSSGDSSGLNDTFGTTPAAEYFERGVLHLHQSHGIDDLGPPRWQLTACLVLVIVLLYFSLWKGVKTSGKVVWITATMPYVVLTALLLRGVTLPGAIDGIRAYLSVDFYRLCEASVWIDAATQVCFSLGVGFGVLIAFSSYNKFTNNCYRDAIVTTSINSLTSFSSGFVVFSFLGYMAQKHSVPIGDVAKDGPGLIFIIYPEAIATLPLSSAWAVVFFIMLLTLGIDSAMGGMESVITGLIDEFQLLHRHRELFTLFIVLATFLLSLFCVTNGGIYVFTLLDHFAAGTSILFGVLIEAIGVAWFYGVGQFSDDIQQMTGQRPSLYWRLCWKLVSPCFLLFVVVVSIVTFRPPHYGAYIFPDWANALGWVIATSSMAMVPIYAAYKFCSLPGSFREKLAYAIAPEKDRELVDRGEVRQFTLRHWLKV
MEASUREMENT KIND: IC50 (µM)
Answer format: numeric, µM implied, no suffix.

>>> test_value("COc1cc2c(cc1C)CC(N)C2 (centres unmarked)")
50.1

Then this compound:
Value lookup for IC50; key = COc1ccc2c(c1)CC(N)C2 (centres unmarked)
50.1

---

assay: Solubility in PBS (pH 7.4), HPLC-UV; assay type: physicochemical; details: PBS buffer, aqueous buffer, kinetic from dmso stock; PBS pH 7.4, room temperature, 120 min, 2% DMSO
Property: solubility at 120 min; scope: individual compounds
Answer format: numeric, µM implied, no suffix.

>>> test_value("COc1ccc2c(c1)CC(N)C2 (centres unmarked) [MEAI, 5-methoxy-2-aminoindane]")
374

Then this compound:
Value lookup for solubility at 120 min; key = COC(=O)c1ccc2c(c1)CC(N)C2 (centres unmarked) [CMP-405, 2-aminoindane-5-methylcarboxylate]
392

---

experiment: In vivo pharmacokinetics and brain penetration in rats after IV administration; conditions: plasma; rat, IV, 0.5 mg/kg; read-out: Clearance
Property: clearance; scope: individual compounds
Answer format: numeric, mL/min/kg implied, no suffix.

>>> test_value("COc1ccc2c(c1)CC(N)C2 (centres unmarked)")
10.6

Then this compound:
Value lookup for clearance; key = COC(=O)c1ccc2c(c1)CC(N)C2 (centres unmarked) [CMP-405, 2-aminoindane-5-methylcarboxylate]
25.5

---

target: hSERT (Homo sapiens); construct: expressed in transfected cells; host or cells: CHO (hSERT-CHO); test: SERT uptake SPA in hSERT-CHO cells; type: cell-based; settings: calculated as 1/SERT IC50:1/DAT IC50
Sequence (P31645 whole entry): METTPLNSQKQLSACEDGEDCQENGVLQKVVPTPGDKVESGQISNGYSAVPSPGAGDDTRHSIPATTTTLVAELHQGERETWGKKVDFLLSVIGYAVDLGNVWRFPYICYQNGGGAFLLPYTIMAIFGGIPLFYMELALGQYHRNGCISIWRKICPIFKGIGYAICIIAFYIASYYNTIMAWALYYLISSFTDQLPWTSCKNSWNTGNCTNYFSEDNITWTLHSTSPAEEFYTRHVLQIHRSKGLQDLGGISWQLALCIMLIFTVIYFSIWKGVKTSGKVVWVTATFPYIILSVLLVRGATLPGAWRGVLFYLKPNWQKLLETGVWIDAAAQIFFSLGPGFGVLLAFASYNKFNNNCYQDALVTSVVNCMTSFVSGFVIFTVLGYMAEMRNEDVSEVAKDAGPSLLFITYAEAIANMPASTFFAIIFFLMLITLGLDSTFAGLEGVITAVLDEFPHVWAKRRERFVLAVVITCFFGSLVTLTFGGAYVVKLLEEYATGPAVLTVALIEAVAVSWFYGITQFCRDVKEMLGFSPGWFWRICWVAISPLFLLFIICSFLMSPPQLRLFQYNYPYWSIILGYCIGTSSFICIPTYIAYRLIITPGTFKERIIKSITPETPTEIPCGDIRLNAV
Threshold 9. SERT/DAT Uptake Ratio below it: true (1). SERT/DAT Uptake Ratio at it or above: false (0).

Recorded results for 3 compounds are shown here.
>>> label("COC(=O)COc1ccc2c(c1)CC(N)C2 (stereo not drawn) [CMP-402]")
"true (1)"
>>> label("COC(=O)c1cc2c(cc1OC)CC(N)C2 (stereo not drawn) [CMP-401]")
"false (0)"
>>> label("COc1cc2c(cc1C)CC(N)C2 (stereo not drawn) [MMAI, 5-methoxy-6-methyl-2-aminoindane]")
"false (0)"

Consider now this further compound.
Is SERT/DAT Uptake Ratio of CNC(C)Cc1ccc2c(c1)OCO2 (stereo not drawn) [MDMA] strictly below 9?
true (1)

---

Property: IC50; scope: individual compounds
molecular target: hSERT (Homo sapiens); construct: expressed in transfected cells; host or cells: CHO (hSERT-CHO); test: SERT uptake SPA in hSERT-CHO cells; assay type: cell-based; conditions: [3H]-serotonin uptake, hSERT-CHO cells; read-out: SERT Uptake SPA (pIC50) (converted)
Answer format: numeric, µM implied, no suffix.

Study these solved cases before continuing.
>>> test_value("COC(=O)Cc1ccc2c(c1)CC(N)C2 (stereo not drawn) [CMP-406]")
63.1
>>> test_value("COC(=O)COc1ccc2c(c1)CC(N)C2 (stereo not drawn) [CMP-402]")
63.1
>>> test_value("COC(=O)CCc1ccc2c(c1)CC(N)C2 (stereo not drawn) [CMP-407]")
25.1

Value lookup for IC50; key = COC(=O)c1ccc2c(c1)CC(N)C2 (stereo not drawn) [CMP-405, 2-aminoindane-5-methylcarboxylate]
7.94

Value lookup for IC50; key = COC(=O)Cc1cc2c(cc1OC)CC(N)C2 (stereo not drawn) [CMP-408]
39.8

Value lookup for IC50; key = COC(=O)c1cc2c(cc1OC)CC(N)C2 (stereo not drawn) [CMP-401]
3.98

---

target: CYP2D6 (Homo sapiens); construct: host or cells: recombinant microsomes; test: CYP450 inhibition, fluorescent probe substrate; assay type: in vitro ADME; conditions: recombinant human isoenzyme, n=2; read-out: Inhibition of CYP2D6, IC50
Sequence (P10635 whole entry): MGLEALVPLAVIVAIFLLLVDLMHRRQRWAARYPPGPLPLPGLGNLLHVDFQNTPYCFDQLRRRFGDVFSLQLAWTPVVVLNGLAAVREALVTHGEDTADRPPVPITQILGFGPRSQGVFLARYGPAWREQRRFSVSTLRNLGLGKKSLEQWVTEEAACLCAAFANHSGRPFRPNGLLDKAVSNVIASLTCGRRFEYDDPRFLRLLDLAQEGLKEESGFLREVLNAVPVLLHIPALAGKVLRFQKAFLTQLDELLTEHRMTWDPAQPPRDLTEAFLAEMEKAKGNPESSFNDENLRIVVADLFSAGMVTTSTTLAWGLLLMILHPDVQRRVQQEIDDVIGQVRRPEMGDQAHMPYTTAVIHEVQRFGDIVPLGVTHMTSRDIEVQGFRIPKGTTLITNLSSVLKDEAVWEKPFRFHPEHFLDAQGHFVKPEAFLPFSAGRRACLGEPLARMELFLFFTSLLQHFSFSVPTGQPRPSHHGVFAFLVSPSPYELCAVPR
MEASUREMENT KIND: pIC50
As a rule, pIC50 stands for the negative log10 of the concentration, concentration in M.

>>> test_value("CNC(C)Cc1ccc2c(c1)OCO2 (stereo not shown)")
5.80

Then this compound:
Value lookup for pIC50; key = COC(=O)c1ccc2c(c1)CC(N)C2 (stereo not shown) [CMP-405, 2-aminoindane-5-methylcarboxylate]
4.64

---

experiment: In vivo pharmacokinetics and brain penetration in rats after IV administration; details: plasma; rat, IV, 0.5 mg/kg; read-out: Cmax
MEASUREMENT KIND: Cmax (ng/mL)
Answer format: numeric, ng/mL implied, no suffix.

>>> test_value("COC(=O)c1ccc2c(c1)CC(N)C2 (centres unmarked) [CMP-405, 2-aminoindane-5-methylcarboxylate]")
808

Then this compound:
Value lookup for Cmax; key = COc1ccc2c(c1)CC(N)C2 (centres unmarked)
1400

---

Property: pIC50; scope: individual molecules
biological target: CYP1A2 (Homo sapiens, UniProt P05177); construct: host or cells: recombinant microsomes; experiment: CYP450 inhibition, fluorescent probe substrate; type: in vitro ADME; conditions: recombinant human isoenzyme, n=2; read-out: Inhibition of CYP1A2, IC50
Sequence (P05177 whole entry): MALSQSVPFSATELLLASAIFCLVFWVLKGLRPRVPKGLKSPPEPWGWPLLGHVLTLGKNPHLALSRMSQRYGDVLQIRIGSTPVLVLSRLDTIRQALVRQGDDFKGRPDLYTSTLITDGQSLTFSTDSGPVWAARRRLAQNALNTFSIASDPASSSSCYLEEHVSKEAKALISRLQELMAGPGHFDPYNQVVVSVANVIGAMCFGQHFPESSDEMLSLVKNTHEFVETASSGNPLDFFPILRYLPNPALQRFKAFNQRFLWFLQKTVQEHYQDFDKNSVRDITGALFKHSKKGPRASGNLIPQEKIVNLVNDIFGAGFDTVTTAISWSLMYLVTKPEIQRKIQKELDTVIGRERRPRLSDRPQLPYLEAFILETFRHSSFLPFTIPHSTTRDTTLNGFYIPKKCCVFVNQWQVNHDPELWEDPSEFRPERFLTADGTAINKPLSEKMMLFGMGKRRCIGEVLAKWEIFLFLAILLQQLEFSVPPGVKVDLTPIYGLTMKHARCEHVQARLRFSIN
As a rule, pIC50 stands for the negative log10 of the concentration, concentration in M.

Study these solved cases before continuing.
>>> test_value("COC(=O)c1ccc2c(c1)CC(N)C2 (stereo not shown) [CMP-405, 2-aminoindane-5-methylcarboxylate]")
6.21
>>> test_value("COC(=O)COc1ccc2c(c1)CC(N)C2 (stereo not shown)")
5.97

Then this molecule:
Value lookup for pIC50; key = COC(=O)c1cc2c(cc1OC)CC(N)C2 (stereo not shown)
5.92

---

tested on: 5-HT release in rat synaptosomes; assay: Serotonin release assay in rat cortex synaptosomes; type: biochemical; conditions: ratio of 5-HT and DA release potency, rat synaptosomes
MEASUREMENT KIND: SERT/DAT Release Ratio
The answer should be a number; do not append a unit.

>>> test_value("COc1ccc2c(c1)CC(N)C2 (centres unmarked)")
28

Value lookup for SERT/DAT Release Ratio; key = COC(=O)Cc1cc2c(cc1OC)CC(N)C2 (centres unmarked)
3.9

Value lookup for SERT/DAT Release Ratio; key = COC(=O)c1ccc2c(c1)CC(N)C2 (centres unmarked) [CMP-405, 2-aminoindane-5-methylcarboxylate]
3.2

Value lookup for SERT/DAT Release Ratio; key = CNC(C)Cc1ccc2c(c1)OCO2 (centres unmarked)
2.6

---

Property: Papp A→B at 60 min; scope: individual compounds
Biological target: human P-glycoprotein transporter (MDCKII-MDR1 cells) (Homo sapiens)
Construct: expressed in transfected cells; host or cells: MDCKII-MDR1 (Madin-Darby Canine Kidney clone II)
Sequence (P08183 whole entry): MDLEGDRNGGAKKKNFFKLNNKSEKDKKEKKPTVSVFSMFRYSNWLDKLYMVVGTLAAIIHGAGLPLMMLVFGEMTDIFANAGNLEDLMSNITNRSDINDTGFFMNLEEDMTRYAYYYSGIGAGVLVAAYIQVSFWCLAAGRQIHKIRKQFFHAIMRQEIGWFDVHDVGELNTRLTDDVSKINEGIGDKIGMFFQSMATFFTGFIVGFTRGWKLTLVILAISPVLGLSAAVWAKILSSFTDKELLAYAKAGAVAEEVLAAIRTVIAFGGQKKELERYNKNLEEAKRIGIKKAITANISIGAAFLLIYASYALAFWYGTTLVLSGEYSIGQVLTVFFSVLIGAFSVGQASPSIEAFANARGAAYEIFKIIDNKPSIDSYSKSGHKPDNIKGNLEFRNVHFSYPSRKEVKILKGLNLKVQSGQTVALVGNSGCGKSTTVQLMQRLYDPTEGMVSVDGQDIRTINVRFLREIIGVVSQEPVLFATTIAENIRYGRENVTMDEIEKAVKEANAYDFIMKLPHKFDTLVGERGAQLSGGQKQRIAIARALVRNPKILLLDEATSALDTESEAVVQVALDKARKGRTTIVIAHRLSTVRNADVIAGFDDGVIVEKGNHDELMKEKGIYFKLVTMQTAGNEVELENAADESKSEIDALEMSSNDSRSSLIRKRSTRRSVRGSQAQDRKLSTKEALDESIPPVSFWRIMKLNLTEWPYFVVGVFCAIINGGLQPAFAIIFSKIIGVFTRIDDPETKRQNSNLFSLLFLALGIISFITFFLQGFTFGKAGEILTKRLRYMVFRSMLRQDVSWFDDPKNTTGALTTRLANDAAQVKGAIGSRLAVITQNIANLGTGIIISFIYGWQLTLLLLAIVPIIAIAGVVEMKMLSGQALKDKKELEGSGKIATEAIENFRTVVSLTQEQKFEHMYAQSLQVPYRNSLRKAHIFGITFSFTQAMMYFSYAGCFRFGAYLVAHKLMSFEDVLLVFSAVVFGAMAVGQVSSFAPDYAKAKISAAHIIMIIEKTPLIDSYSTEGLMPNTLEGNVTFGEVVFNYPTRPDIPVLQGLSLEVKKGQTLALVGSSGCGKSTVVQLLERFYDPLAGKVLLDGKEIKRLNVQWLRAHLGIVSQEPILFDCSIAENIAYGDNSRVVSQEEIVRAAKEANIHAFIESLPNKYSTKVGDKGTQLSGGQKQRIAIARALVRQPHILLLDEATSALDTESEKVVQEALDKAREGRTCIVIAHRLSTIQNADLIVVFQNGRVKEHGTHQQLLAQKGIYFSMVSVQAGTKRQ
Assay: Bidirectional permeability and P-gp substrate assay in MDCKII-MDR1 cells
Type: in vitro ADME
Conditions: dog, MDCK; apical to basolateral, pH 7.4, 60 min; read-out: MDCKII Permeability app A > B
Experimental: Methods: A bidirectional permeability study was conducted to evaluate the apparent permeability (Papp) of therapeutic compounds. […] Compounds were tested at a single concentration (i.e. at […]) at one time point (i.e. 60 min). […] Digoxin transport was evaluated in two directions (apical-to-basolateral [AB] and basolateral-to-apical [BA]) in the absence and presence of GF120918 or in mock cells, MDCKII (n=3). […]
Answer format: numeric, ×10⁻⁶ cm/s implied, no suffix.

>>> test_value("COc1ccc2c(c1)CC(N)C2 (centres unmarked)")
17.4

Value lookup for Papp A→B at 60 min; key = COC(=O)c1ccc2c(c1)CC(N)C2 (centres unmarked) [CMP-405, 2-aminoindane-5-methylcarboxylate]
16.2
